Recorded values, source patent US7705034B2.

The listing below reports pIC50 for compounds tested on Chymase purified form human skin mast cells (Homo sapiens).
Sequence (P23946 22-247): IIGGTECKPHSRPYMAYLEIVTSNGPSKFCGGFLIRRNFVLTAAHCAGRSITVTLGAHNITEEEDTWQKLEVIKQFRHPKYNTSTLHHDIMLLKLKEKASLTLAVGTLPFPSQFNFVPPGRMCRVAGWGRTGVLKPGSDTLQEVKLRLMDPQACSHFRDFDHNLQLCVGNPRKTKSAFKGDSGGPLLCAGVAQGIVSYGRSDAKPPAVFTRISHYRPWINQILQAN
Bear in mind: pIC50 is minus log10 of a mol/L concentration; give just that figure.

Cc1ccc(C2(C)C(=O)C(C(c3ccccc3)c3[nH]c4cc(C)ccc4c3C)=C2O)cc1 (stereo not drawn) [Example 13]; 8.10
CC(=O)NCc1c(C(C2=C(O)C(C)(c3ccccc3)C2=O)c2ccccc2)[nH]c2cc(C)ccc12 (stereo not drawn) [Example 10]; 7.60

Note: attention shifts to another entry.
Provide value of pIC50 for this record tested with Chymase purified form human skin mast cells (Homo sapiens): Cc1c(C(C2=C(O)C(C)(c3ccccc3)C2=O)c2ccccc2)[nH]c2ccccc12 (stereo not drawn) [Example 6]
7.47
